test system: HepG2; assay: GSK_TCMDC: Percent inhibition of human HepG2 cell line. Test compounds present at 10uM.; type: functional
Could you please report measured Inhibition for the items listed next?
Enter your answer as a number in %; do not include the unit.

Indicate the recorded Inhibition value for this compound: Cc1c(C)c2c(c(C)c1O)CC[C@@](C)(C(=O)N1CCC(CCN3CCC(c4c[nH]c5ccccc45)CC3)CC1)O2 37

Identify Inhibition associated with the compound CCc1ccccc1N1CCN(CCCCNC(=O)c2ccc(NC(=O)c3ccc(Cl)cc3)cc2)CC1 21

Report measured Inhibition; entry is O=C(c1cc(-c2cccs2)n[nH]1)N1CCN(S(=O)(=O)c2ccc(Cl)s2)CC1 20

Indicate its recorded Inhibition; the compound in question is Cn1c(=O)c2cc(C(=O)NCCCN3CCCCCC3)sc2c2ccccc21 32

Consider the compound CCNc1cc(C(=O)N[C@@H](Cc2ccccc2)[C@H](O)CNCc2cccc(-c3cncnc3)c2)cc(N2CCCC2=O)c1.O=C(O)C(F)(F)F and give its recorded Inhibition. 5

Give Inhibition for the following compound: CCCCCCOc1ccc(C(=O)NCCC2CCN(CCCCCNC(=O)C=Cc3ccc(Cl)c(Cl)c3)CC2)cc1 13

Let me know recorded Inhibition for COc1cc(OC)c2c(C)cc(NCCCn3ccnc3)nc2c1 , thanks. 6

Look up and report measured Inhibition for this entry: Cc1ccc(C(C(=O)Nc2ccc(N3CCNCC3)c(Cl)c2)c2ccccc2)cc1 (centres undefined) 23

Fill in Inhibition for record NC1=NC(c2ccccc2)(c2ccccc2)C(=O)N1CCCCc1ccccc1.O=CO 14
